Test system: human Factor 7 mRNA
Test: Dose-dependent antisense inhibition of human Factor 7 in HepB3 cells, transfection with lipofectin
Type: cell-based
Settings: Example 5; HepB3, lipofectin, 100.0 nM, ~16 h
In the oligonucleotide strings, read from the 5' end, every base follows the letter of its sugar. An asterisk marks phosphorothioate; unmarked linkages are phosphodiester. Other units and linkages are bracketed, terminal groups are in braces. A string of capitals states the bases alone. e = 2'-O-(2-methoxyethyl) (MOE); [5mC] = 5-methylcytosine; d = 2'-deoxy (DNA)
endpoint: percent inhibition of Factor 7 mRNA, 100.0 nM (%)
Numbers only; they are read as %.

Query: Which percent inhibition of Factor 7 mRNA, 100.0 nM is listed for 416449 (antisense eT*eA*eG*eG*eT*dA*dT*dT*dT*dT*dT*d[5mC]*d[5mC]*dA*d[5mC]*eA*eT*eG*eG*eA) [compound 416449] ?
Result: 85

Query: Query 407643 (antisense e[5mC]*eA*e[5mC]*eA*e[5mC]*dA*dT*dG*dG*dA*dG*dT*d[5mC]*dA*dG*e[5mC]*eA*eT*e[5mC]*eG) [compound 407643] next
Result: 93

Query: Query 416477 (antisense e[5mC]*eA*eG*e[5mC]*e[5mC]*dT*dG*dA*dG*dG*d[5mC]*d[5mC]*dA*dG*d[5mC]*eA*eG*eA*eT*e[5mC]) [compound 416477] next
Result: 87

Query: Query 407939 (antisense eT*eG*e[5mC]*eA*eG*d[5mC]*d[5mC]*d[5mC]*dG*dG*d[5mC]*dA*d[5mC]*d[5mC]*d[5mC]*eA*eG*e[5mC]*eG*eA) [compound 407939] next
Result: 87

Query: Query 407935 (antisense eA*eT*eG*e[5mC]*eA*dT*dG*dG*dT*dG*dA*dT*dG*d[5mC]*dT*eT*e[5mC]*eT*eG*eA) [compound 407935] next
Result: 86

Query: Query 416508 (antisense e[5mC]*eG*eA*eG*eT*dT*d[5mC]*dT*dG*d[5mC]*dA*dG*dG*dA*dG*e[5mC]*eG*eG*e[5mC]*e[5mC]) [compound 416508] next
Result: 89

Query: Query 407900 (antisense e[5mC]*e[5mC]*e[5mC]*e[5mC]*eA*d[5mC]*dA*dA*dT*dT*d[5mC]*dG*dG*d[5mC]*d[5mC]*eT*eT*eG*eG*eG) [compound 407900] next
Result: 91

Query: Query 416472 (antisense e[5mC]*eA*eG*e[5mC]*e[5mC]*dT*dT*dG*dG*d[5mC]*dT*dT*dT*d[5mC]*dT*e[5mC]*eT*e[5mC]*e[5mC]*eA) [compound 416472] next
Result: 88

Query: Query 416549 (antisense eG*eA*e[5mC]*eA*eA*dT*dG*dG*dT*d[5mC]*dA*dG*dG*dG*d[5mC]*eT*eG*eG*eT*eT) [compound 416549] next
Result: 78

Query: Query 416455 (antisense e[5mC]*eG*e[5mC]*e[5mC]*eG*dG*d[5mC]*dT*d[5mC]*dT*dG*d[5mC]*dT*d[5mC]*dA*eT*e[5mC]*e[5mC]*e[5mC]*e[5mC]) [compound 416455] next
Result: 87

Query: Query 416438 (antisense e[5mC]*eA*eG*eG*eA*dG*d[5mC]*d[5mC]*d[5mC]*d[5mC]*d[5mC]*dA*dT*dT*d[5mC]*eT*eG*eG*e[5mC]*eA) [compound 416438] next
Result: 82

Query: Query 416507 (antisense eG*eG*eT*eT*eA*d[5mC]*dT*dG*dA*dG*d[5mC]*dG*d[5mC]*dG*dG*eA*eA*eG*eA*eA) [compound 416507] next
Result: 72

Query: Query 416446 (antisense eG*eG*eT*e[5mC]*eA*d[5mC]*dT*dG*d[5mC]*dA*dG*dT*dA*d[5mC]*dT*eG*e[5mC]*eT*e[5mC]*eA) [compound 416446] next
Result: 64

* * *

Test system: human Factor 7 mRNA
Assay: Antisense inhibition of human Factor 7 mRNA in HepB3 cells, lipofectin, 50 nM, real-time RT-PCR
Type: cell-based
Conditions: HepB3 cells, lipofectin, 50 nM antisense oligonucleotide, approximately 24 hours, primer probe set RTS 2927, relative to untreated control
In the oligonucleotide strings, read from the 5' end, every base follows the letter of its sugar. An asterisk marks phosphorothioate; unmarked linkages are phosphodiester. Other units and linkages are bracketed, terminal groups are in braces. A string of capitals states the bases alone. e = 2'-O-(2-methoxyethyl) (MOE); [5mC] = 5-methylcytosine; d = 2'-deoxy (DNA)
Just so you know, the groups by % Inhibition of human Factor 7 mRNA levels go like this: class 1: < 10%; class 2: ≥ 10% and < 60%; class 3: ≥ 60%

Query: Field: class (% Inhibition of human Factor 7 mRNA levels) — entry: 416501 (antisense e[5mC]*eT*eG*e[5mC]*e[5mC]*d[5mC]*dT*dT*d[5mC]*d[5mC]*dA*d[5mC]*d[5mC]*dA*dA*eG*eT*eT*eT*eA) [compound 416501]
Result: class 2

Query: Query 407606 (antisense e[5mC]*eT*eG*eG*eT*d[5mC]*d[5mC]*dT*dT*dG*d[5mC]*dA*dG*dG*dA*eG*e[5mC]*e[5mC]*e[5mC]*e[5mC]) [compound 407606] next
Result: class 2

Query: Query 416564 (antisense eG*e[5mC]*e[5mC]*eA*e[5mC]*dT*d[5mC]*dA*d[5mC]*dA*dG*dA*dA*dA*dG*e[5mC]*eT*eG*eG*eA) [compound 416564] next
Result: class 1

Query: Query 416438 (antisense e[5mC]*eA*eG*eG*eA*dG*d[5mC]*d[5mC]*d[5mC]*d[5mC]*d[5mC]*dA*dT*dT*d[5mC]*eT*eG*eG*e[5mC]*eA) [compound 416438] next
Result: class 3

Query: Query 416549 (antisense eG*eA*e[5mC]*eA*eA*dT*dG*dG*dT*d[5mC]*dA*dG*dG*dG*d[5mC]*eT*eG*eG*eT*eT) [compound 416549] next
Result: class 3

Query: Query 416440 (antisense eG*eG*eA*e[5mC]*eT*dG*dG*dA*dG*d[5mC]*dT*dG*dG*dT*d[5mC]*e[5mC]*eT*eT*eG*e[5mC]) [compound 416440] next
Result: class 2

Query: Query 416555 (antisense eA*eA*eA*eG*eA*dT*d[5mC]*dA*dG*dG*d[5mC]*dA*dA*dA*dG*eA*eT*e[5mC]*e[5mC]*e[5mC]) [compound 416555] next
Result: class 1

Query: Query 416556 (antisense eA*eT*eA*eG*e[5mC]*dT*dT*dT*dG*dA*dT*d[5mC]*d[5mC]*dA*dA*eT*eG*e[5mC]*eT*e[5mC]) [compound 416556] next
Result: class 2

Query: Query 416492 (antisense eG*eG*eA*eT*e[5mC]*dA*dT*dT*d[5mC]*dT*dG*dG*d[5mC]*d[5mC]*d[5mC]*eT*eG*eA*eG*e[5mC]) [compound 416492] next
Result: class 2

Query: Query 416482 (antisense e[5mC]*eA*eT*eG*eG*dT*dG*dA*dT*dG*d[5mC]*dT*dT*d[5mC]*dT*eG*eA*eA*eT*eT) [compound 416482] next
Result: class 3

Query: Query 416532 (antisense eG*eG*eA*e[5mC]*e[5mC]*d[5mC]*dA*dG*dA*dT*dG*dA*d[5mC]*d[5mC]*dA*eG*e[5mC]*eA*eG*eG) [compound 416532] next
Result: class 2

* * *

System: human Factor 7 mRNA
Test: Antisense inhibition of human Factor 7 mRNA in HepB3 cells, lipofectin, 50 nM, real-time RT-PCR
Type: cell-based
Settings: HepB3 cells, lipofectin, 50 nM antisense oligonucleotide, approximately 24 hours, primer probe set RTS 2927, relative to untreated control
In the oligonucleotide strings, read from the 5' end, every base follows the letter of its sugar. An asterisk marks phosphorothioate; unmarked linkages are phosphodiester. Other units and linkages are bracketed, terminal groups are in braces. A string of capitals states the bases alone. e = 2'-O-(2-methoxyethyl) (MOE); [5mC] = 5-methylcytosine; d = 2'-deoxy (DNA)
endpoint: % Inhibition of human Factor 7 mRNA levels

Query: Which % Inhibition of human Factor 7 mRNA levels is listed for 416515 (antisense eT*eA*eG*eG*e[5mC]*dA*dT*dG*dA*d[5mC]*d[5mC]*dA*dT*d[5mC]*d[5mC]*eT*e[5mC]*eA*eA*eT) [compound 416515] ?
Result: 39%

Query: Query 416437 (antisense eA*eG*eG*e[5mC]*eA*d[5mC]*dA*d[5mC]*dT*dG*dG*dT*d[5mC]*d[5mC]*d[5mC]*e[5mC]*eA*eT*e[5mC]*eA) [compound 416437] next
Result: 52%

Query: Query 416547 (antisense eA*eT*eG*eA*eA*dA*dT*dT*d[5mC]*dT*dA*d[5mC]*d[5mC]*dT*dA*eA*eA*eG*eA*eT) [compound 416547] next
Result: 0%

Query: Query 416453 (antisense eG*eA*eT*eT*eT*dT*dG*dT*d[5mC]*dG*dA*dA*dA*d[5mC]*dA*eG*eT*eG*eG*eG) [compound 416453] next
Result: 45%

Query: Query 416488 (antisense e[5mC]*eA*eG*eG*eT*d[5mC]*d[5mC]*dT*d[5mC]*d[5mC]*d[5mC]*dA*d[5mC]*dT*dG*e[5mC]*eA*eG*e[5mC]*e[5mC]) [compound 416488] next
Result: 41%
